SYSTEM TESTED: sDSP (DSP178–627) (Homo sapiens, UniProt P15924, S442F)
Construct: gene DSP; N-terminal spectrin repeat/SH3 fragment, residues 178-627; pGEX-1 GST fusion cut with thrombin, E. coli BL21(DE3); fluorescein-5-maleimide label on exposed cysteines (C405, C524)
Sequence (P15924 178-627 S442F): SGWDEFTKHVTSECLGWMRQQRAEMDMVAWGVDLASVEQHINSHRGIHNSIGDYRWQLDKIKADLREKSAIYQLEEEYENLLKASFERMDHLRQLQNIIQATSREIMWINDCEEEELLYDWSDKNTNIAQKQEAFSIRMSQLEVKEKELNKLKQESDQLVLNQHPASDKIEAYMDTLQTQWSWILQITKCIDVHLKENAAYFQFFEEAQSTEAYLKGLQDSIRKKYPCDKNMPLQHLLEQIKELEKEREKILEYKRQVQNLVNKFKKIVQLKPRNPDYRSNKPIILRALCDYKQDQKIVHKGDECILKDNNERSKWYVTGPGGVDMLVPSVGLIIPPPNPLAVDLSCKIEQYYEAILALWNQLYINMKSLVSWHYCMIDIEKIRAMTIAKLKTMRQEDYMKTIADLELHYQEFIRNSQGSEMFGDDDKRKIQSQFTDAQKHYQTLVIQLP
PROCEDURE TEXT: biochemical
Design: FITC-sDSP S442F degradation by trypsin (1:50), fluorescence polarization after 60 min, per cent of protease-only control
TEST CONDITIONS: degradation rate of DSP S442F by trypsin; read-out: % of control remaining
Where a name gives a salt, the structure may show the parent alone.
READOUT: remaining activity at 500 µM (%)

Consider the compound shown here: O=C(NC1CCN(CCCCC2(C(=O)NCC(F)(F)F)c3ccccc3-c3ccccc32)CC1)c1ccccc1-c1ccc(C(F)(F)F)cc1 [Lomitapide] What is its recorded remaining activity at 500 µM?
32

Entry CC/C=C\C/C=C\C/C=C\C/C=C\C/C=C\C/C=C\CCC(=O)O has what remaining activity at 500 µM?
32

Item CCCCCCCCCCCCCCCC(=O)NCCO [palmitoylethanolamide] has what recorded remaining activity at 500 µM?
26

Give the measured remaining activity at 500 µM of CNC(=O)c1c(F)cccc1Nc1nc(Nc2cc3c(cc2OC)CCN3C(=O)CN(C)C)nc2[nH]ccc12 [GSK1838705A] .
32

Requested read-out: remaining activity at 500 µM. Entry: CCCCc1oc2ccc(NS(C)(=O)=O)cc2c1C(=O)c1ccc(OCCCN(CCCC)CCCC)cc1 [Dronedarone HCl]
23

(I) CN1CCN(C2=Nc3ccccc3Oc3ccc(Cl)cc32)CC1 [Loxipine Succinate]
(II) C=C(c1ccc(C(=O)O)cc1)c1cc2c(cc1C)C(C)(C)CCC2(C)C
(III) Cc1ccc(NC(=O)c2ccc(CN3CCN(C)CC3)cc2)cc1Nc1nccc(-c2cccnc2)n1
(IV) CC(C)=CCC/C(C)=C/CC/C(C)=C/CSc1ccccc1C(=O)O
(V) COc1ccc(-c2cc(=O)c3c(O)cc(O)cc3o2)cc1O
Order by remaining activity at 500 µM, ascending. I'd appreciate it if you listed the labels in the requested order.
IV, III, I, V, II
(IV: -8%, III: -3%, I: 1%, V: 18%, II: 26%)
